target: UniProtKB O95255; assay: ABCC6 WT assay: HiBit protein expression; conditions: HEK-293 cells transiently expressing HiBit-tagged ABCC6 WT; 24 h treatment; top concentration 20 μM; read-out: ABCC6 WT EC50, Emax
compounds and their reported EC50

Chemical structure | EC50
Cc1cc(C)c(Oc2nc(-c3cncc(C#N)c3)ccc2S(N)(=O)=O)c(C)n1 | 10 to 25 µM
Cc1cc(C)c(Oc2[nH]c(-c3cncc(C#N)c3)cc(=O)c2NS(C)(=O)=O)c(C)n1 | ≥ 25 µM
Cc1cc(C(F)F)nc(C2CC2)c1Oc1nc(-c2cncc(C#N)c2)ccc1S(=O)(=O)NC1COC1 | 1 to 10 µM
Cc1cc(C2CC2)nc(C)c1Oc1nc(-c2cncc(S(C)(=O)=O)c2)ccc1NS(C)(=O)=O | 1 to 10 µM
Cc1cc(C(F)F)nc(C)c1Oc1nc(-c2ccnc(C#N)c2)ccc1NS(C)(=O)=O | < 1 µM
Cc1cc(C)c(Oc2nc(-c3cncc(C#N)c3)cnc2NS(C)(=O)=O)c(C)n1 | 1 to 10 µM
Cc1cc(C)c(Oc2nc(-c3cncc(Cl)c3)ccc2S(=O)(=O)Nc2cnn(C)c2)c(C2CC2)c1 | < 25 µM

----------
compounds and their reported EC50
target: ABCB4 WT (Homo sapiens, UniProt P21439); test: ABCB4 WT assay: HiBit protein expression; conditions: HEK-293 cells stably expressing HiBit-tagged ABCB4 WT; 24 h treatment; top concentration 30 μM; read-out: ABCB4 WT EC50, Emax
Sequence (P21439 whole entry): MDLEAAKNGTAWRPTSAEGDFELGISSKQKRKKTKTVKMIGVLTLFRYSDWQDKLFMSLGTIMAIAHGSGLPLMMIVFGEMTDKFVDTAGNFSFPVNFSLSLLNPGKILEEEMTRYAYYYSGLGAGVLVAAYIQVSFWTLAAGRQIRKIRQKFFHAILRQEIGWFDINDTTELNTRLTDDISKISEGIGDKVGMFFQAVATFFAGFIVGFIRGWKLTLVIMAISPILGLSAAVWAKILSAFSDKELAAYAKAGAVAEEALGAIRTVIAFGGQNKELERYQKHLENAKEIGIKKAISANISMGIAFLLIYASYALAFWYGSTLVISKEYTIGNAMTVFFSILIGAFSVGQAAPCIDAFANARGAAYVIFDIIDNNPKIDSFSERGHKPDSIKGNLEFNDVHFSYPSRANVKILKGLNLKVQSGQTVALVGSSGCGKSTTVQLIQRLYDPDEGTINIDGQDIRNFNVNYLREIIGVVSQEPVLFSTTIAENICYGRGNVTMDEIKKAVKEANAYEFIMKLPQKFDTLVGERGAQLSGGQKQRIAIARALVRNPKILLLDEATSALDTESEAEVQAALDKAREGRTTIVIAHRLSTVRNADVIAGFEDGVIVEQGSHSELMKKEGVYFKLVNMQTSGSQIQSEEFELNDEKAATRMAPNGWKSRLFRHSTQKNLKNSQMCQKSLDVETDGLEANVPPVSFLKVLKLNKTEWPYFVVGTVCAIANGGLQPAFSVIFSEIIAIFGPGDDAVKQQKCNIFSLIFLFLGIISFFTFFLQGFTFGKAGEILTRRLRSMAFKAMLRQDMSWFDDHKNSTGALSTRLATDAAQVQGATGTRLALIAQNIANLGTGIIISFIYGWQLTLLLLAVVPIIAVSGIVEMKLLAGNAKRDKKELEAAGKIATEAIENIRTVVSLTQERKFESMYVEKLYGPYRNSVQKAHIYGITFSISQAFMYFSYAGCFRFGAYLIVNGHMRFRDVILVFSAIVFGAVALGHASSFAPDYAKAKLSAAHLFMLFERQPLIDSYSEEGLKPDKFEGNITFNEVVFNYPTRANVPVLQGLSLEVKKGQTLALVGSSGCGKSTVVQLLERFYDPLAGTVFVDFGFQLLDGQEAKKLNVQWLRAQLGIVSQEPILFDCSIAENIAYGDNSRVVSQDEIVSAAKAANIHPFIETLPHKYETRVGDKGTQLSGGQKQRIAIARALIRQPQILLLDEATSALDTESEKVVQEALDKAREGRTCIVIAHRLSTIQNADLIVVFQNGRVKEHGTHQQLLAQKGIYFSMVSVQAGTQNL
Measurement label: EC50

Compound | Measurement label | Observed value
Cc1cc(C)c(Oc2nc(-c3cncc(C#N)c3)ccc2NS(=O)(=O)C2CCC2)c(C)c1 | EC50 | 1000 to 10000 nM
Cc1cc(C)c(Oc2nc(-c3cncc(Cl)c3)ccc2S(=O)(=O)NCc2ccccn2)c(C2CC2)c1 | EC50 | 1000 to 10000 nM
Cc1nc(Oc2nc(-c3cncc(C#N)c3)ccc2NS(C)(=O)=O)c(C2CC2)s1 | EC50 | < 1000 nM
Cc1sc(C2CC2)nc1Oc1nc(-c2cncc(C#N)c2)ccc1NS(C)(=O)=O | EC50 | < 1000 nM
Cc1cc(C(F)F)nc(C2CC2)c1Oc1nc(-c2cncc(C#N)c2)ccc1N(C)S(=O)(=O)C1CC1 | EC50 | < 1000 nM
Cc1cc(C)c(Oc2nc(-c3cncc(C#N)c3)ccc2S(N)(=O)=O)c(C)c1 | EC50 | < 1000 nM
Cc1cc(C)c(Oc2nc(N3CC4CC3CN4C(=O)C3CC3)ccc2NS(C)(=O)=O)c(C)c1 (single isomer, unassigned) [Compound I-18] | EC50 | ≥ 25000 nM

----------
molecules and their reported pEC50
molecular target: ABCC6 WT (Homo sapiens, UniProt O95255); experiment: ABCC6 WT assay: HiBit protein expression; conditions: HEK-293 cells transiently expressing HiBit-tagged ABCC6 WT; 24 h treatment; top concentration 20 μM; read-out: ABCC6 WT EC50, Emax
Sequence (O95255 whole entry): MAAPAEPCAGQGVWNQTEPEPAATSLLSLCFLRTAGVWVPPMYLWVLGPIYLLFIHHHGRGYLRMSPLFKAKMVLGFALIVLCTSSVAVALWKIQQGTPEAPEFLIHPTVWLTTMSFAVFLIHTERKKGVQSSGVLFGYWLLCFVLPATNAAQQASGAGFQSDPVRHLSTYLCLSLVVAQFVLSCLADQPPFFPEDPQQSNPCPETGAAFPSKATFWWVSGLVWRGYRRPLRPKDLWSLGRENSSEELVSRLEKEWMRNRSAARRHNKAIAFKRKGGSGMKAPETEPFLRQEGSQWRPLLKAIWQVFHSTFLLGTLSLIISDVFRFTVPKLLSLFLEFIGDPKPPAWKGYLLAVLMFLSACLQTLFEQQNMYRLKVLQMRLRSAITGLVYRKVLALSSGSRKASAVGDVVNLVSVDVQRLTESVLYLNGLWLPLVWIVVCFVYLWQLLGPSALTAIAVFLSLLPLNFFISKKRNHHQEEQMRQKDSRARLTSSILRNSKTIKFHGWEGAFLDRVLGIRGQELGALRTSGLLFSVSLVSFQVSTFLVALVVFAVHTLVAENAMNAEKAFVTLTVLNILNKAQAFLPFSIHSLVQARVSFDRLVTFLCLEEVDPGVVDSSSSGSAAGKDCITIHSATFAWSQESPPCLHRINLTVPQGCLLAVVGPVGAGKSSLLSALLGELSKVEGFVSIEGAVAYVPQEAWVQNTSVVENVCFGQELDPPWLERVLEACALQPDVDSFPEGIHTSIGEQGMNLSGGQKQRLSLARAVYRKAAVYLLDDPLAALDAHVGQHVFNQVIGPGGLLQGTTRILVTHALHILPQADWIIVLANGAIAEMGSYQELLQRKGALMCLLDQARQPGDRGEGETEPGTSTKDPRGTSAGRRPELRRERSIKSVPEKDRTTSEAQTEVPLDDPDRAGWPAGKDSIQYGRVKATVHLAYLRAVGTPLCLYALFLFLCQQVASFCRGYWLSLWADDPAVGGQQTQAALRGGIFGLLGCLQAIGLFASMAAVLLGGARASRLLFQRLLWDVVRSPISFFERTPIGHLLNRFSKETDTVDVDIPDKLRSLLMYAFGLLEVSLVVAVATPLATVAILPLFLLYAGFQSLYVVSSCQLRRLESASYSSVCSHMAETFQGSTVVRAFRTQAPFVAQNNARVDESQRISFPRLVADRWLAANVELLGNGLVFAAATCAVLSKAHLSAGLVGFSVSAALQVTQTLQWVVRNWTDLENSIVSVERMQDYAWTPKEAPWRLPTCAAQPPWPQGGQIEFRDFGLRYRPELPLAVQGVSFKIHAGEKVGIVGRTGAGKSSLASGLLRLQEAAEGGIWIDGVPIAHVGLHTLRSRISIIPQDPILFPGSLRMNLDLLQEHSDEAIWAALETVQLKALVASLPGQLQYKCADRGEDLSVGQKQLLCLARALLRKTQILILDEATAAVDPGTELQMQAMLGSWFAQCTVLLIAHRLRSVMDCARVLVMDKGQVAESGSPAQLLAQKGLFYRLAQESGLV
pEC50: −log10 of the molar value.

Molecule | pEC50
Cc1nc(C)c(Oc2nc(-c3cncc(C#N)c3)ccc2NS(C)(=O)=O)c(C)n1 [Compound I-234] | > 6.00
CNC(=O)N1CCN(c2ccc(NS(C)(=O)=O)c(Oc3c(C)cc(C)cc3C)n2)CC1 [Compound I-27] | 4.60 to 5.00
Cc1cc(C)c(Oc2nc(-c3cncc(C4CC4)c3)ccc2NS(C)(=O)=O)c(C)n1 [Compound I-232] | > 6.00
Cc1cc(C)c(Oc2nc(N3CCC(C#N)C3)ccc2NS(C)(=O)=O)c(C)c1 (single isomer, unassigned) [Compound I-262] | 5.00 to 6.00

----------
Target: ABCD2 WT (Homo sapiens)
Sequence (Q9UBJ2 1-740): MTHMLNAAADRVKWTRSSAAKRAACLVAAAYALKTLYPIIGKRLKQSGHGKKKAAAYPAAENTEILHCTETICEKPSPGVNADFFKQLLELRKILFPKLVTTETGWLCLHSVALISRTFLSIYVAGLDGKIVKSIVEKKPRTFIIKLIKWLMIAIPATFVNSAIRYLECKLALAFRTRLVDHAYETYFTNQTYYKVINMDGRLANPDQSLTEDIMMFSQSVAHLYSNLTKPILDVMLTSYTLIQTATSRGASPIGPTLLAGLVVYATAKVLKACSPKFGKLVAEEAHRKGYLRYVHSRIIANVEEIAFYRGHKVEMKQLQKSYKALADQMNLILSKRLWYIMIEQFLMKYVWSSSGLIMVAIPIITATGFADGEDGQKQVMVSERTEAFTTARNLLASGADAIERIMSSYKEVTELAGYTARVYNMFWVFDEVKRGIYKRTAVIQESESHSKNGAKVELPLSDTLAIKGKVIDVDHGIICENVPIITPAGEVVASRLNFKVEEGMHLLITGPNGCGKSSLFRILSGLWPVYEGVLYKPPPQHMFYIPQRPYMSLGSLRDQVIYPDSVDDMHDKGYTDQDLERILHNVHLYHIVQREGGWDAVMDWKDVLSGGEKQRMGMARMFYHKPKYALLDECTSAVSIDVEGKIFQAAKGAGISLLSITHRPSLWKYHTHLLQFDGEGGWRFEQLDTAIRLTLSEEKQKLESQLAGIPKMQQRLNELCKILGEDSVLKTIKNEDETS
Assay: D2 correction dose-response assay: ABCD2 WT HiBit protein expression
Settings: HEK-293/ABCD2 WT cells, 24 hours treatment, HiBit luminescence; class combines EC50 and Mean MaxAct (fold); read-out: ABCD2 WT EC50, Emax
pEC50: −log10 of the molar value.
molecules and their reported pEC50
Measurement label: pEC50

Molecule | Observed value
Cc1cc(C)c(Oc2nc(N3CCC(C#N)CC3)ccc2NS(C)(=O)=O)c(C)c1 [Compound I-244] | 4.60 to 5.00
Cc1nc(C(F)F)nc(C)c1Oc1nc(-c2cncc(Cl)c2)ccc1NS(C)(=O)=O [Compound I-175] | < 4.60
Cc1nc(C)c(Oc2nc(-c3cncc(C4CC4)c3)ccc2NS(C)(=O)=O)c(C)n1 [Compound I-193] | > 6.00
Cc1cc(C2CC2)nc(C2CC2)c1Oc1nc(-c2cncc(C#N)c2)ccc1N(C)S(C)(=O)=O [Compound I-146] | 4.60 to 5.00

----------
biological target: UniProt:P21439; assay: ABCB4 WT assay: HiBit protein expression; settings: HEK-293 cells stably expressing HiBit-tagged ABCB4 WT; 24 h treatment; top concentration 30 μM; read-out: ABCB4 WT EC50, Emax
pEC50: −log10 of the molar value.

Compound | pEC50
Cc1cc(C)c(Oc2nc(-c3cncc(C#N)c3)ccc2NS(C)(=O)=O)c(C)c1 | > 6.00
Cc1cc(C)c(Oc2nc(-c3cccc(C#N)c3)ccc2S(=N)(=O)C2CC2)c(C)n1 (centres unmarked) | 5.00 to 6.00
Cc1cc(C)c(Oc2nc(-c3cncc(Cl)c3)ccc2NS(=O)(=O)C(C)(C)C)c(C)c1 | ≤ 4.60
COc1cc(-c2ccc(NS(C)(=O)=O)c(Oc3c(C)cc(C)nc3C)n2)ccn1 | ≤ 4.60
Cc1cc(C(F)F)nc(C2CC2)c1Oc1nc(-c2cncc(C#N)c2)ccc1NS(C)(=O)=O | > 6.00
Cc1cc(C)c(Oc2nc(N3CCN(S(C)(=O)=O)CC3)ccc2NS(C)(=O)=O)c(C)c1 | 5.00 to 6.00
Cc1cc(C)c(Oc2nc(-c3cncc(C#N)c3)ccc2NS(C)(=O)=O)c(C)n1 | > 6.00
Cc1cc(C)c(Oc2nc(-c3cncc(CO)c3)ccc2NS(C)(=O)=O)c(C)n1 | > 4.60

----------
target: ABCB4 WT (Homo sapiens); construct: expressed in transfected cells; experiment: ABCB4 WT assay: HiBit protein expression; assay type: cell-based; settings: HEK-293 cells stably expressing HiBit-tagged ABCB4 WT; 24 h treatment; top concentration 30 μM; read-out: ABCB4 WT EC50, Emax
Measurement label: EC50

Molecule | Target or system | Measurement label | Observed value
Cc1cc(C)c(Oc2nc(-c3cncc(N4CCC4)c3)ccc2NS(C)(=O)=O)c(C)n1 [Compound I-190] | ABCB4 WT (Homo sapiens) | EC50 | < 1 µM
Cc1nc(C)c(Oc2nc(-c3cncc(C#N)c3)ccc2N(C)S(C)(=O)=O)c(C2CC2)n1 [Compound I-157] | ABCB4 WT (Homo sapiens) | EC50 | < 25 µM
Cc1cc(C(F)(F)F)nc(C)c1Oc1nc(-c2ccnc(C#N)c2)ccc1NS(C)(=O)=O [Compound I-219] | ABCB4 WT (Homo sapiens) | EC50 | < 1 µM
Cc1nc(N2CC(C#N)C2)nc(C)c1Oc1nc(-c2cncc(C#N)c2)ccc1NS(C)(=O)=O [Compound I-159] | ABCB4 WT (Homo sapiens) | EC50 | < 1 µM
Cc1cc(C2CC2)nc(C)c1Oc1nc(-c2cncc(C#N)c2)ccc1NS(C)(=O)=O [Compound I-4] | ABCB4 WT (Homo sapiens) | EC50 | < 1 µM
Cc1cc(C)c(Oc2nc(-c3ccn(C)c(=O)c3)ccc2NS(C)(=O)=O)c(C)n1 [Compound I-186] | ABCB4 WT (Homo sapiens) | EC50 | ≥ 25 µM
Cc1cc(C)c(Oc2nc(N3CCN(C(=O)C4CC4)CC3)ccc2NS(C)(=O)=O)c(C2CC2)n1 [Compound I-20] | ABCB4 WT (Homo sapiens) | EC50 | ≥ 25 µM
Cc1cc(C2CC2)nc(C)c1Oc1nc(-c2cncc(C#N)c2)ccc1NS(=O)(=O)C1COC1 [Compound I-235] | ABCB4 WT (Homo sapiens) | EC50 | < 25 µM
Cc1cc(C2CC2)nc(C)c1Oc1nc(-c2cncc(S(C)(=O)=O)c2)ccc1NS(C)(=O)=O [Compound I-263] | ABCB4 WT (Homo sapiens) | EC50 | 1 to 10 µM
Cc1cc(C)c(Oc2nc(-n3cnc(C#N)c3)ccc2N(C)S(C)(=O)=O)c(C)c1 [Compound I-272] | ABCB4 WT (Homo sapiens) | EC50 | < 25 µM
Cc1cc(C)c(Oc2nc(-c3cccc(C#N)n3)ccc2NS(C)(=O)=O)c(C)n1 [Compound I-241] | ABCB4 WT (Homo sapiens) | EC50 | 10 to 25 µM
Cc1cc(C)c(Oc2nc(-c3cncc(Cl)c3)ncc2NS(C)(=O)=O)c(C)n1 [Compound I-246] | ABCB4 WT (Homo sapiens) | EC50 | < 25 µM
Cc1nc(C)c(Oc2nc(-c3cncc(C#N)c3)ccc2NS(C)(=O)=O)c(C)n1 [Compound I-234] | ABCB4 WT (Homo sapiens) | EC50 | 1 to 10 µM
Cc1cc(C)c(Oc2nc(-c3cc(Cl)cnc3C)ccc2NS(C)(=O)=O)c(C)n1 [Compound I-282] | ABCB4 WT (Homo sapiens) | EC50 | ≥ 25 µM
Cc1cc(C)c(Oc2nc(-n3ccc(C#N)n3)ccc2NS(C)(=O)=O)c(C)c1 [Compound I-257] | ABCB4 WT (Homo sapiens) | EC50 | ≥ 25 µM
Cc1cc(C)c(Oc2nc(N3C4CC3CN(C(=O)C3CC3)C4)ccc2NS(C)(=O)=O)c(C)c1 [Compound I-35] | ABCB4 WT (Homo sapiens) | EC50 | ≥ 25 µM
